# System: sRANKL mediated TRAP activity (osteoclastogenesis), RAW 264.7
# assay method text: sRANKL mediated osteoclastogenesis: TRAP activity in RAW 264.7 cells
# test conditions: Mus musculus, RAW264.7, read-out: % TRAP Activity average
endpoint name: activity at 10 µg/mL (%)
Unit % implied. Number only.

Answered cases to consult:
INSERT INTO assay_data (compound, measurement_target, endpoint_name, number) VALUES
  ('O=C(CCc1ccc(O)cc1)c1c(O)cc(O)cc1O[C@@H]1O[C@H](CO)[C@@H](O)[C@H](O)[C@H]1O [Phloridzin]', 'sRANKL mediated TRAP activity (osteoclastogenesis), RAW 264.7', 'activity at 10 µg/mL', 150),
  ('Oc1ccc(C=Cc2cc(O)cc(O)c2)cc1 [Resveratrol]', 'sRANKL mediated TRAP activity (osteoclastogenesis), RAW 264.7', 'activity at 10 µg/mL', 2),
  ('COc1ccc2cc3[n+](cc2c1OC)CCc1cc2c(cc1-3)OCO2 [Berberine]', 'sRANKL mediated TRAP activity (osteoclastogenesis), RAW 264.7', 'activity at 10 µg/mL', -8),
  ('N[C@H]1C(O)O[C@H](CO)[C@@H](O)[C@@H]1O (stereo partly drawn) [Glucosamine]', 'sRANKL mediated TRAP activity (osteoclastogenesis), RAW 264.7', 'activity at 10 µg/mL', 48);

Please give the measured activity at 10 µg/mL for this compound: C/C=C1/[C@H](O[C@@H]2O[C@H](CO)[C@@H](O)[C@H](O)[C@H]2O)OC=C(C(=O)OC)[C@H]1CC(=O)OCCc1ccc(O)c(O)c1 [Oleuropein]
81

Now this one: CC1(C)CC[C@]2(C(=O)O)CC[C@]3(C)C(=CC[C@@H]4[C@@]5(C)CC[C@H](O)C(C)(C)[C@@H]5CC[C@]43C)[C@@H]2C1 [Oleanolic Acid]
35
